Source of measurements: patent US6455550B1

- Target or system: cell-surface VLA-4 (α4β1 integrin) on Ramos cells binding to immobilized VCAM-1 (Homo sapiens, UniProt P05556+P13612)
- Construct: Ramos cells bearing cell-surface VLA-4; endogenous in cells; host or cells: Ramos cells (VLA-4); VCAM-1 purified from CHO cell culture media
- Sequence (P13612 34-1032): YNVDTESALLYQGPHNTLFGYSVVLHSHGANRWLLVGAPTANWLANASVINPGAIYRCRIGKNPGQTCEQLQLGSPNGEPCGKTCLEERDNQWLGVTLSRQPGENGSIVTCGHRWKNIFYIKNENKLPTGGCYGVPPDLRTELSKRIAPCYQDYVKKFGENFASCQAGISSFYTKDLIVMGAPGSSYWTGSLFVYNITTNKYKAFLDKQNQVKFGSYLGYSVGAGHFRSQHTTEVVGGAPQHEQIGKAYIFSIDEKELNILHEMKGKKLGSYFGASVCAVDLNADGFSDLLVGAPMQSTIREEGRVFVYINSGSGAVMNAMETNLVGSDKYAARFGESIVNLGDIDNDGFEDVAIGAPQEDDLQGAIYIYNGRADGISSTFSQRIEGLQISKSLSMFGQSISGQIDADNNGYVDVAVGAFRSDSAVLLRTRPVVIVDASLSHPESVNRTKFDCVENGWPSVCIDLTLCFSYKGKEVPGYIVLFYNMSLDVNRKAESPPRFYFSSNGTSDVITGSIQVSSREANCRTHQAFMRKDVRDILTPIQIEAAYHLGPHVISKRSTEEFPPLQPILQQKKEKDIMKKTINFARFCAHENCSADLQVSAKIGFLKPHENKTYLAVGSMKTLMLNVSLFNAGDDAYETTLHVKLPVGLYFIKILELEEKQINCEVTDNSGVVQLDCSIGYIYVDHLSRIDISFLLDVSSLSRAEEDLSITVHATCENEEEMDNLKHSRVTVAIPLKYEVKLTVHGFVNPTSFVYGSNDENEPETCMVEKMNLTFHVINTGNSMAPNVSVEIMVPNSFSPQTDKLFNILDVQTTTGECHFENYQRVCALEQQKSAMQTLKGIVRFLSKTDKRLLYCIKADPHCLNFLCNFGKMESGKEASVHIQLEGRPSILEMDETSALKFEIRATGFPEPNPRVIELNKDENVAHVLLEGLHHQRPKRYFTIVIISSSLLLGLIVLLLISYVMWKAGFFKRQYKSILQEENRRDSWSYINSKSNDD
- Sequence (P05556 21-798): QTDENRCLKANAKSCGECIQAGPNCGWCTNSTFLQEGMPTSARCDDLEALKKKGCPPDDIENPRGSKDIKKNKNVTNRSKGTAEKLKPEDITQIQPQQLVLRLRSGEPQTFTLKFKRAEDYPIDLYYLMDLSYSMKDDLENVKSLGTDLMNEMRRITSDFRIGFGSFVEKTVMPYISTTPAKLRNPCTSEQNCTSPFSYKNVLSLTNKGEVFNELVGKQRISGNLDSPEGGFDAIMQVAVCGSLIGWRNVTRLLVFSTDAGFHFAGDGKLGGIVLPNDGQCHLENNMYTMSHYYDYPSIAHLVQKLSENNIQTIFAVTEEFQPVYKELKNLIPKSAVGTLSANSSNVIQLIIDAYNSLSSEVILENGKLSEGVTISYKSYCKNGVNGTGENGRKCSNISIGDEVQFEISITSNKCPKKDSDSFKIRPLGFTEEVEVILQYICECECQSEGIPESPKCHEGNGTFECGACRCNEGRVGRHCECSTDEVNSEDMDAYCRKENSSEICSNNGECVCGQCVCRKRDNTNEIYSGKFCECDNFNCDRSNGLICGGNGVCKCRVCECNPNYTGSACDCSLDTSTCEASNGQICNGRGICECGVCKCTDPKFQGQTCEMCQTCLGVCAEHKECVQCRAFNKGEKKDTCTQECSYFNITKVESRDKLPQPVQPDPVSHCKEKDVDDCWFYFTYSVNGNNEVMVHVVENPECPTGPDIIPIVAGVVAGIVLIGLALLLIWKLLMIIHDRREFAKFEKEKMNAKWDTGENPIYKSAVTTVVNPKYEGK
- Experimental protocol: Ramos (VLA-4)/VCAM-1 Cell-Based Screening Assay (cell adhesion)
- Cond: Calcein-AM labeled Ramos cells, VCAM-1 coated plates, 45 min at room temperature; read-out: IC50 in Ramos Cell Based Assay
pIC50: −log10 of the molar value.
If the reported pIC50 equals or exceeds 8, assign class 1. If not, assign class 0.

CSCCCCC1(C(=O)N[C@@H](Cc2ccc(NC(=O)c3c(Cl)cccc3Cl)cc2)C(=O)O)CCCC1 : class 0
CCCC(=O)N1C(c2ccc(Cl)cc2)N(c2ccc(C[C@H](NC(=O)C3(CCNC(C)=O)CCCC3)C(=O)O)cc2)C(=O)[C@H]1Cc1ccccc1 (single isomer, unassigned) : class 1

Q: Exam item: decide whether the reported pIC50 for COc1ccc(C[C@@H]2C(=O)N(c3ccc(C[C@H](NC(=O)C4(CCNC(C)=O)CCCC4)C(=O)O)cc3)C(c3ccc(Cl)cc3)N2C(C)=O)cc1 (single isomer, unassigned) is at least 8.
A: class 0

Q: Exam item: decide whether the reported pIC50 for COc1ccc(CC2(C(=O)N[C@@H](Cc3ccc(NC(=O)c4c(Cl)cccc4Cl)cc3)C(=O)O)CCCC2)cc1 [Example 95] is at least 8.
A: class 0

Q: Exam item: decide whether the reported pIC50 for COc1ccc(C[C@@H]2C(=O)N(c3ccc(C[C@H](NC(=O)C4(CCNC(C)=O)CCCC4)C(=O)O)cc3)C(c3ccccc3)N2C(=O)COc2ccccc2)cc1 (single isomer, unassigned) is at least 8.
A: class 1

###

- Target or system: VLA-4 (α4β1 integrin) binding to immobilized VCAM-1 (Homo sapiens, UniProt P05556+P13612)
- Construct: followed by 10 μl of Ramos cell-derived VLA-4; endogenous in cells; host or cells: Ramos cells (VLA-4 preparation derived from the cells)
- Sequence (P13612 34-1032): as the sequence (P13612 34-1032) above
- Sequence (P05556 21-798): as the sequence (P05556 21-798) above
- Experimental protocol: VLA-4/VCAM-1 Screening Assay (solid-phase, dual antibody ELISA)
- Cond: Ramos cell-derived VLA-4, recombinant human VCAM-1 coated plates, 2 hr at 37° C.; read-out: IC50
Response field label takes YES when IC50 is strictly below 1 nM and NO in all other cases.

Consider the worked cases shown below.
CCCCC(C)(CC)C(=O)NC(Cc1ccc(NC(=O)CCN2CCCCC2)cc1)C(=O)O (stereo not shown) : NO
Cn1nnnc1-c1cccc(CC2(C(=O)N[C@@H](Cc3ccc(NC(=O)c4c(Cl)cccc4Cl)cc3)C(=O)O)CCC2)c1 : YES
COc1ccc(CC2(C(=O)N[C@@H](Cc3ccc(NC(=O)N4CCC(C#N)(c5ccccc5)CC4)cc3)C(=O)O)CCCC2)cc1 : NO

Q: Given COc1ccc(C2(C(=O)NC(Cc3ccc(NC(=O)CCN4CCCCC4)cc3)C(=O)O)CCCCC2)cc1 (stereo not shown) , is recorded IC50 strictly lower than 1 nM?
A: YES

Q: Given COCC1(C(=O)NC(Cc2ccc(NC(=O)c3c(Cl)cccc3Cl)cc2)C(=O)O)CCCC1 (stereo not shown) , is recorded IC50 strictly lower than 1 nM?
A: NO

Q: Given COc1ccc(CC2(C(=O)N[C@@H](Cc3ccc(NC(=O)c4cc([N+](=O)[O-])ccc4C)cc3)C(=O)O)CCCC2)cc1 [Example 42] , is recorded IC50 strictly lower than 1 nM?
A: YES

Q: Given "COC(=O)NCCC1(C(=O)N[C@@H](Cc2ccc(NC(=O)c3c(Cl)cccc3Cl)cc2)C(=O)O)CCCC1" , is recorded IC50 strictly lower than 1 nM?
A: YES
